Test system: CCHF virus ovarian tumor domain protease (vOTU, L protein)
ASSAY DETAILS: CCHFV vOTU protease inhibitors, confirmation, biochemical, Pep-AMC substrate, fluorescence (AID 686976)
MEASUREMENT PARAMETERS: Recombinant CCHFV vOTU, at 11.5 µM, stronger effect = higher value
About 320 (17%) of roughly 1,900 compounds were called active. The list is a sample of the results.
ASSAY ENDPOINT: inhibition (%)

                                   compound  quantity_unit  measured_number
0                CCNC(=S)N1CCN(c2ncccn2)CC1              %            -9.28
1  CCN(CC)CCCC(C)n1c2nc(=O)[nH]c(=O)c-2nc2cc(Cl)ccc21 (stereo not drawn)              %             98.9
2  CCc1ccc2c(c1)NC(=O)C2(C)Cc1ccc(OC(F)(F)F)cc1 (stereo not drawn)              %             3.85
3      COc1ccccc1N=Nc1c(O)[nH]c(=S)[nH]c1=O              %             30.5
4  CCCCCC(=O)N1C[C@H](O)[C@@H](n2cc(COC(=O)c3ccccc3)nn2)C[C@@H]1c1ccc(C)cc1              %             7.84
5  Cc1cc(C(=O)N/N=C/c2ccc(O)c([N+](=O)[O-])c2)c(C)n1-c1ccc(F)cc1              %             8.57
6        CN(C)c1ccc(N/C=C/C(=O)C(F)(F)F)cc1              %             5.61
7  CCOc1ccc(C(=O)Nc2ccc(S(=O)(=O)NCC3CCCO3)cc2)cc1OCC (stereo not drawn)              %            -7.98

====

Tested on: CCHF virus ovarian tumor domain protease (vOTU, L protein)
ASSAY DETAILS: CCHFV vOTU protease inhibitors, confirmation, biochemical, Pep-AMC substrate, fluorescence (AID 686976)
MEASUREMENT PARAMETERS: Recombinant CCHFV vOTU, at 11.5 µM, stronger effect = higher value
Hit rate of the full screen: of about 1,900 compounds, about 320 (17%) were called active. The list is a sample of the results.
ASSAY ENDPOINT: inhibition

In [3]: df
Out[3]:
                                   molecule                               measured_on  assay_endpoint             result
0             Oc1ccc(N=Cc2sc3ccccc3c2Cl)cc1  CCHF virus ovarian tumor domain protease (vOTU, L protein)      inhibition  -0.82% (inactive)
1  CCOC(=O)c1ccc(NC(=O)c2nc[nH]c2C(=O)N[C@@H](CCCCNC(=O)OC(C)(C)C)C(=O)OC(C)(C)C)cc1  CCHF virus ovarian tumor domain protease (vOTU, L protein)      inhibition   12.5% (inactive)
2  CCOC(=O)c1c(C)[nH]c2c1-c1ccccc1C(=O)C2=O  CCHF virus ovarian tumor domain protease (vOTU, L protein)      inhibition     98.7% (active)
3  Cc1cccc(C)c1NC(=O)CNC(=O)c1c(C)nn(-c2ccccc2)c1C  CCHF virus ovarian tumor domain protease (vOTU, L protein)      inhibition  -17.8% (inactive)
4  CCOC(=O)c1ccc(Nc2cc3ccccc3c(=O)[nH]2)cc1  CCHF virus ovarian tumor domain protease (vOTU, L protein)      inhibition   24.6% (inactive)
5                  NC1=CC(=O)C(=O)c2cccnc21  CCHF virus ovarian tumor domain protease (vOTU, L protein)      inhibition     95.4% (active)
6  Cc1nnc(SC(C)C(=O)Nc2ccc(S(=O)(=O)NC3CCCCC3)cc2)s1 (stereo not given)  CCHF virus ovarian tumor domain protease (vOTU, L protein)      inhibition  -7.87% (inactive)
7  CCOc1cc(NC(=O)c2ccccc2C(=O)O)c(OCC)cc1NC(=O)c1ccccc1F  CCHF virus ovarian tumor domain protease (vOTU, L protein)      inhibition  -9.49% (inactive)
8  COC(=O)[C@]12C[C@H](CC(=O)NCc3ccc(C)o3)C(=O)N(CCC3=CCCCC3)C1=C[C@H](C(C)(C)C)O[C@@H]2C  CCHF virus ovarian tumor domain protease (vOTU, L protein)      inhibition   9.58% (inactive)
9  Oc1c(Cl)cc(Cl)c(Cl)c1Cc1c(O)c(Cl)cc(Cl)c1Cl  CCHF virus ovarian tumor domain protease (vOTU, L protein)      inhibition     31.2% (active)

====

System: CCHF virus ovarian tumor domain protease (vOTU, L protein)
ASSAY DETAILS: CCHFV vOTU protease inhibitors, confirmation, biochemical, Pep-AMC substrate, fluorescence (AID 686976)
MEASUREMENT PARAMETERS: Recombinant CCHFV vOTU, at 11.5 µM, stronger effect = higher value
In all, about 1,900 compounds went through this assay and about 320 (17%) were called active. Only a sample is shown.
inhibition listing for selected molecules.
ASSAY ENDPOINT: inhibition (%)

>>> df
                                   molecule  measured_number
0  COc1ccc(F)cc1C(=O)C1CCCN(C(=O)CCc2ccccn2)C1 (centres undefined)            -14.7
1  O=C1Nc2ccc([N+](=O)[O-])cc2C1=Nc1cccc(CO)c1             58.4
2  COC(=O)[C@@]12C[C@@H](CC(=O)NCc3cccc(C(F)(F)F)c3)C(=O)N(Cc3ccco3)C1=CCC(C)(C)C2             12.2
3         Cc1nnc(NC(=O)Nc2ccc(Cl)c(Cl)c2)s1            -15.1
4  O=S(=O)(Nc1ccc(O)c2ccccc12)c1ccc(OC(F)(F)F)cc1             10.3
5  COCCNC(=O)Nc1ccc2nc(-c3ccco3)c(-c3ccco3)nc2c1             1.78
6  C=CCC[C@@H](CCCCC)OC(=O)/C=C/[C@@H](O)[C@H](O)C[C@H](O)CC=C            -0.24
7  Cc1ccc(S(=O)(=O)/N=C2\C=C(NS(=O)(=O)c3ccc(C)cc3)C(=O)c3ccccc32)cc1             38.1
8  CCN(C[C@H]1N[C@@](CC)(C(=O)OC)[C@H]2C(=O)N(Cc3ccccc3)C(=O)[C@@H]12)S(=O)(=O)c1ccc(C(F)(F)F)cc1              7.2

====

Test system: CCHF virus ovarian tumor domain protease (vOTU, L protein)
ASSAY DETAILS: CCHFV vOTU protease inhibitors, confirmation, biochemical, Pep-AMC substrate, fluorescence (AID 686976)
MEASUREMENT PARAMETERS: Recombinant CCHFV vOTU, at 11.5 µM
Screen size: about 1,900 compounds; about 320 (17%) were called active. No stated cut-off is given here; in the data, active means inhibition above about 30%; inactive means the rest. Only a sample is shown.
Labels: active, inactive

                                    compound  qualitative_label
 0  O=C(NCCc1ccc(Cl)cc1Cl)c1cc([N+](=O)[O-])c[nH]c1=O           inactive
 1  O=C(COc1ccc(Cl)cc1)N1CCN(c2cccc(C(F)(F)F)c2)CC1           inactive
 2  COc1ccc2c(c1)c(=Cc1ccc(N(C)C)cc1)c1cc(-c3ccccc3)[n+](C)n12           inactive
 3           Oc1ccc(N=Cc2c(O)ccc3ccccc23)cc1           inactive
 4  COCCn1nnnc1C(c1cc2ccc(OC)cc2[nH]c1=O)N1CCc2ccccc2C1 (stereo unspecified)           inactive
 5  O=C1C=C(NS(=O)(=O)c2ccccc2)C(=O)c2ccccc21           inactive
 6               Nc1ccc(N=Nc2ccccc2Cl)c(N)n1           inactive
 7  CC1=NN(c2ccc(Cl)c(C(=O)O)c2)C(=O)/C1=C/c1ccc(-c2ccccc2[N+](=O)[O-])o1           inactive
 8  COc1ccc(C(N)c2csc(NC(=O)Nc3cccc(C(F)(F)F)c3)n2)cc1 (stereo unspecified)           inactive
 9         Oc1c(C=Nc2cccc3nsnc23)ccc2ccccc12             active
10  CCCSc1nc(NCc2ccco2)c2c3c(sc2n1)COC(C)(CC)C3 (stereo unspecified)           inactive

Cited source for all entries: PubChem BioAssay AID686976
